Below is a list of entries, each paired with its recorded IC50 (M), inhibition of EGF-stimulated EGFR auto-phosphorylation in A549 cells value.
# target.under.test: EGFR expressed on the surface of cells (A431, A549, MCF7 and other EGFR-expressing cell lines) (human, UniProt P00533 25-1210)
# method.summary: cell-based or functional assay
observed.property: IC50 (M), inhibition of EGF-stimulated EGFR auto-phosphorylation in A549 cells

binder	value.unit	assay.value
D2GC4 (antibody, V domains shown) VH: EVQLVESGGGVVQPGRSLRLSCAASGFIFHHYSMHWVRQAPGKGLEWVAHISSDGSSKFYADSVKGRFTVSRDNSKNTLYLQMNSLRAEDTAVYYCARFTEVLYYGADLWGQGTLVTVSS VL: QSVLTQPPSVSEAPRQRVSISCSGSSSNIGNNAVNWYQQLPGKAPKLLIYYDDLLPSGVSDRFSGSKSGTSASLAISGLQSEDEADYYCAAWDDSLKGYVFGTGTKVTV	M	2.8e-10
D2 (antibody, IgG1, V domains shown, also called EGFR-D2; Clone D2) VH: EVQLVESGGGVVQPGRSLRLSCAASGFIFNHYAMHWVRQAPGKGLEWVAHISSDGSYKFYADSVKGRFTVSRDNSDNTVYLQMNSLGPEDTAVYHCARFTEVLYYGADYWGQGTLVTVSS VL: QSVLTQPPSVSEAPRQRVSISCSGSSSNIGNNAVNWYQQLPGKAPKLLIYFDDLLPSGVSDRFSGSKSGTSASLAISGLQSEDEADYYCAAWDDSLKGYVFGTGTKVTVL	M	1.3e-09
D2GA6 (antibody, V domains shown) VH: EVQLVESGGGVVQPGRSLRLSCAASGFIFHHYAMHWVRQAPGKGLEWVAHISPDGSSKFYADSVKGRFTVSRDNSKNTLYLQMNSLRAEDTAVYYCARFTEVLYYGADIWGQGTLVTVSS VL: QSVLTQPPSVSEAPRQRVSISCSGSSSNIGNNAVNWYQQLPGKAPKLLIYFDDLLPQGVSDRFSGSKSGTSASLAISGLQSEDEADYYCAAWDDSLKGYVFGTGTKVTVL	M	2.2e-10

From: patent US20130309233A1
